Tested on: Friend cells (an erythroleukemic cell line)
Experiment: MTT cytotoxicity, Friend cells (Example 5)
Format: cell-based
Details: 72 hour
Method: The toxicity of methotrexate derivatives of the invention (DP-MTX) was evaluated in an additional cell-culture system. The doses required to inhibit the growth of cultured Friend cells (an erythroleukemic cell line) by 50%, over a 72 hour period (ED50), were determined using a mitochondrial viability (MTT) endpoint assay. Friend cells were seeded at a density of 10^4 cells/ml in RPMI medium supplemented with 10% FCS in 96 well plates. […]
measurementLabel: ED50 (nmol)
Express it in nmol; write the number only.

These recorded examples may help you get a feel for the data.
compound	ED50 [nmol]
CCCCCCCCCCCCCCCCCC(=O)OC[C@H](COP(=O)([O-])OCC[N+](C)(C)C)OC(=O)CCCNC(=O)C(CCC(=O)O)NC(=O)c1ccc(N(C)Cc2cnc3nc(N)nc(N)c3n2)cc1 (some centres unmarked) [DP-MTX-129]	97.5
CCCCCCCCCCCCCCCCCC(=O)OC[C@H](COP(=O)([O-])OCC[N+](C)(C)C)OC(=O)CCNC(=O)C(CCC(=O)O)NC(=O)c1ccc(N(C)Cc2cnc3nc(N)nc(N)c3n2)cc1 (some centres unmarked) [DP-MTX-93]	97.5
CCCCCCCCCCCCCCCCCC(=O)OC[C@H](COP(=O)([O-])OCC[N+](C)(C)C)OC(=O)CCCCCCCNC(=O)C(CCC(=O)O)NC(=O)c1ccc(N(C)Cc2cnc3nc(N)nc(N)c3n2)cc1 (some centres unmarked) [DP-MTX-142]	3000
CN(Cc1cnc2nc(N)nc(N)c2n1)c1ccc(C(=O)N[C@@H](CCC(=O)O)C(=O)O)cc1 [MTX, Methotrexate]	10

Query ED50 on Friend cells (an erythroleukemic cell line) for CCCCCCCCCCCCCCCCCC(=O)OC[C@H](COP(=O)([O-])OCC[N+](C)(C)C)OC(=O)CCCCCNC(=O)C(CCC(=O)O)NC(=O)c1ccc(N(C)Cc2cnc3nc(N)nc(N)c3n2)cc1 (some centres unmarked) [DP-MTX-106]
390

###

test system: J774; test: MTT cytotoxicity on tumor cell lines, J774 (Example 8); assay type: cell-based; details: J774, Myeloma (mouse), 72 hours
measurementLabel: EC50 (nM)
Express it in nM; write the number only.

Quick one: EC50 of CN(Cc1cnc2nc(N)nc(N)c2n1)c1ccc(C(=O)N[C@@H](CCC(=O)O)C(=O)O)cc1 [MTX, Methotrexate] ?
112

###

system: Du148; test: MTT cytotoxicity on tumor cell lines, Du148 (Example 8); assay type: cell-based; settings: Du148, Prostate cancer (human), 72 hours
measurementLabel: EC50 (nM)
Express it in nM; write the number only.

Quick one: EC50 of CN(Cc1cnc2nc(N)nc(N)c2n1)c1ccc(C(=O)N[C@@H](CCC(=O)O)C(=O)O)cc1 [MTX, Methotrexate] ?
29

###

test system: CEM-MTX (MTX-resistant mutant of CEM, mutation in the RFC); assay: MTT cell growth inhibition, MTX-resistant CEM-MTX cells (Example 4); type: cell-based, human; details: Homo sapiens; 72 hours, MTT assay; read-out: EC50, nMol CEM-MTX
measurementLabel: EC50 (µM)
Express it in µM; write the number only.

Query EC50 on CEM-MTX (MTX-resistant mutant of CEM, mutation in the RFC) for CN(Cc1cnc2nc(N)nc(N)c2n1)c1ccc(C(=O)N[C@@H](CCC(=O)O)C(=O)O)cc1 [MTX, Methotrexate]
2.54

###

system: Wild type human leukemia CEM cells; assay: MTT cytotoxicity with and without Leucovorin, CEM cells (Example 6); assay type: cell-based; conditions: CCRF-CEM, 72 hours, 10 μM Leucovorin, read-out: EC50, nMol + 10 μM Leucovorin
measurementLabel: pEC50
Quick note: pEC50 means taking -log10 of the concentration in moles per liter.

Quick one: pEC50 of CN(Cc1cnc2nc(N)nc(N)c2n1)c1ccc(C(=O)N[C@@H](CCC(=O)O)C(=O)O)cc1 [MTX, Methotrexate] ?
6.04

###

tested on: L1210; assay: MTT cytotoxicity, parent L1210 cells (Example 9); format: cell-based; details: Mus musculus
# key: entry, value: EC50
Express it in nM; write the number only.

molecule	measurementLabel	unitName	numericResult
CN(Cc1cnc2nc(N)nc(N)c2n1)c1ccc(C(=O)N[C@@H](CCC(=O)O)C(=O)O)cc1 [MTX, Methotrexate]	EC50	nM	14

Turning now to a further record.
Quick one: EC50 of CC(=O)O[C@H]1C(=O)[C@@]2(C)[C@H]([C@H](OC(=O)c3ccccc3)[C@]3(O)C[C@H](OC(=O)[C@H](O)[C@@H](NC(=O)c4ccccc4)c4ccccc4)C(C)=C1C3(C)C)[C@]1(OC(C)=O)CO[C@@H]1C[C@@H]2O [TAX, Taxol] ?
8
